src = PubChem BioAssay (NCI)

compounds and their reported growth
tested on: K-562 leukemia; assay: NCI-60 one-dose screen, 48 h (100 = growth as untreated, 0 = no growth, -100 = all killed); conditions: 10 µM unless noted
This is part of a sample that, as a whole, favours compounds with a hit. Of some 83,000 tested, about 20% had one in any assay.
Form entry: value (%) — number only.

Observe how each entry below is paired with its result.
- compound: "C[C@]12CCC(=O)C[C@@H]1CC[C@@H]1[C@@H]2CC[C@]2(C)[C@@H](OC(=O)N(CCCl)N=O)CC[C@@H]12"
  growth (%): 10.7
- compound: "CC[C@H](C)[C@H](NC(=O)CN(C)C)C(=O)N(C)[C@H](C[C@@H](OC(C)=O)c1nc(C(=O)NC23C4C5C2C2C3C4C52C(=O)OC)cs1)C(C)C (stereo partly drawn)"
  growth (%): 7.65

So what growth did `CC[C@H](C)[C@H](NC(=O)c1ncccn1)C(=O)N(C)[C@H](C[C@@H](OC(C)=O)c1nc(C(=O)N[C@@H](Cc2ccccc2)C[C@H](C)C(=O)OC)cs1)C(C)C` get with K-562 leukemia?
7.26

----------
test system: BT-549 breast; assay: NCI-60 one-dose screen, 48 h (100 = growth as untreated, 0 = no growth, -100 = all killed); conditions: 10 µM unless noted
Compounds without any hit were thinned out: in the full panel of roughly 83,000, 20% have a hit. The source made the active and inactive calls. Rule for the calls: active = growth percent below 10; inactive = the rest.
molecules and their reported growth

Observe how each entry below is paired with its result.
- sample smiles: "COc1ccc(/C=C(/C)[N+](=O)[O-])cc1OC"
  growth: "60.2% (inactive)"
- sample smiles: "Cn1cc(-c2csc(-c3cn(CCCCN4CCOCC4)c4ccc(F)cc34)n2)c2cccnc21"
  growth: "65.3% (inactive)"
- sample smiles: "c1ccc2c(c1)O[As](O[As]1Oc3ccccc3O1)O2"
  growth: "17.6% (inactive)"

Then there is this molecule:
What does the data say about its growth? Entry: `CC1=CC(=Nc2ccc(N(CCCl)CCCl)cc2)C=C(C)C1=O`
52.5% (inactive)

----------
compounds and their reported growth
test system: OVCAR-4 ovarian; assay: NCI-60 one-dose screen, 48 h (100 = growth as untreated, 0 = no growth, -100 = all killed); conditions: 10 µM unless noted
Compounds without any hit were thinned out: in the full panel of roughly 83,000, 20% have a hit.
Form entry: value (%) — number only.

- compound: "O=[N+]([O-])c1ccc(P(=O)(O)O)cc1"
  target under test: "OVCAR-4 ovarian"
  growth [%]: 96.2

What does the data say about its growth? Entry: `OCCN=Cc1c[nH]c2ccccc12`
94

What does the data say about its growth? Entry: CC12CCC3C4CCC(=O)C=C4CCC3C1CC1CC(=O)OC12 (centres undefined)
103

What does the data say about its growth? Entry: `Cn1cc(-c2csc(-c3cn(CCCCN4CCOCC4)c4ccc(F)cc34)n2)c2cccnc21`
84.5

----------
system: CCRF-CEM leukemia; assay: NCI-60 one-dose screen, 48 h (100 = growth as untreated, 0 = no growth, -100 = all killed); settings: 10 µM unless noted
About 83,000 compounds went through this panel and 20% of them were active in at least one assay; those are over-represented in the sample as a whole. Activity calls are given as the source filed them. The calls were made as follows: active = growth percent below 10; inactive = the rest.
molecules and their reported growth

Observe how each entry below is paired with its result.
- molecule: "C[C@]12CCC(=O)C[C@@H]1CC[C@@H]1[C@@H]2CC[C@]2(C)[C@@H](OC(=O)N(CCCl)N=O)CC[C@@H]12"
  reported metric: "growth"
  observed value: "14.7% (inactive)"
- molecule: "CCCCOCCOP(=O)(OCCOCCCC)OCCOCCCC"
  reported metric: "growth"
  observed value: "110% (inactive)"

What does the data say about its growth? Entry: `C[C@]12CCc3sc(Nc4ccc(OC(F)(F)F)cc4)nc3C1=CC[C@@H]1[C@@H]2CC[C@]2(C)C(=O)CC[C@@H]12`
5.05% (active)

What does the data say about its growth? Entry: COc1ccc2c(c1)C1(C)CCN(C)CC(C1)C2O (stereo not drawn)
94.3% (inactive)

What does the data say about its growth? Entry: `C[C@]12CC[C@H]3[C@@H](CC=C4c5nc(-c6ccc(Br)cc6)sc5CC[C@@]43C)[C@@H]1CC[C@@H]2O`
96.1% (inactive)

What does the data say about its growth? Entry: `C[Se]/C=C1/C(=O)N(c2c(Cl)cccc2Cl)c2ccccc21`
10.2% (inactive)

What does the data say about its growth? Entry: `C[C@]12CCc3sc(Nc4ccc(F)cc4)nc3C1=CC[C@@H]1[C@@H]2CC[C@]2(C)C(=O)CC[C@@H]12`
14% (inactive)

----------
system: UO-31 renal; assay: NCI-60 one-dose screen, 48 h (100 = growth as untreated, 0 = no growth, -100 = all killed); details: 10 µM unless noted
This is part of a sample that, as a whole, favours compounds with a hit. Of some 83,000 tested, about 20% had one in any assay. Activity calls are given as the source filed them. Rule for the calls: active = growth percent below 10; inactive = the rest.
molecules and their reported growth

Observe how each entry below is paired with its result.
- molecule: "CCN1C(=O)CC(=O)N(CC)C1=S"
  observed value: "91.7% (inactive)"
- molecule: "O=[N+]([O-])c1ccc(CI)cc1"
  observed value: "91.9% (inactive)"
- molecule: "COc1ccc(C(C#N)C(C)=O)cc1 (configuration not stated)"
  observed value: "90.4% (inactive)"

What does the data say about its growth? Entry: CN1CCC2(CC1)C(C#N)C(=O)NC(=O)C2C#N (configuration not stated)
91.9% (inactive)

What does the data say about its growth? Entry: `N#CC(C#N)=C(C#N)C#N`
90.9% (inactive)

What does the data say about its growth? Entry: `CCCCOC(N)=O`
89.1% (inactive)

What does the data say about its growth? Entry: `C[C@]12CC[C@H]3[C@@H](C[C@@H]4SC(Nc5ccccc5)=N[C@@]45C/C(=N/O)CC[C@]35C)[C@@H]1CCC2=O`
91.5% (inactive)

----------
test system: SF-295 CNS; experiment: NCI-60 one-dose screen, 48 h; details: 10 µM unless noted
This is part of a sample that, as a whole, favours compounds with a hit. Of some 83,000 tested, about 20% had one in any assay. The source made the active and inactive calls. How the source made its calls: active means growth percent below 10; inactive means the rest.
The categories you may choose from are active, inactive

See these solved cases before continuing.
- molecule: "COc1ccc(N)cc1N"
  target under test: "SF-295 CNS"
  label value: "inactive"
- molecule: "COc1cc(-c2ccc(N)c(OC)c2)ccc1N"
  target under test: "SF-295 CNS"
  label value: "inactive"
- molecule: "Cn1cc(C(=O)C[n+]2ccccc2)c2ccccc21"
  target under test: "SF-295 CNS"
  label value: "inactive"

Record request — test call for COc1cc(C2C3=C(CCCC3=O)N(CCO)c3cc4c(cc32)CCC4)cc(OC)c1OC (stereo unspecified)
inactive

Record request — test call for `Nc1ccc(S(=O)(=O)F)cc1`
inactive

Record request — test call for `C#COc1cccc(Nc2ncnc3cc(NC(=O)CF)ccc23)c1`
inactive

Record request — test call for `CC1=CC(=Nc2ccc(N(CCCl)CCCl)cc2)C=C(C)C1=O`
inactive

Record request — test call for `Cc1cc(Br)c([N+](=O)[O-])cc1[N+](=O)[O-]`
inactive

Record request — test call for `C[C@]12CC[C@@H](OC(=O)N(CCCl)N=O)C[C@@H]1CC[C@@H]1[C@@H]2CC[C@]2(C)C(=O)CC[C@@H]12`
active

Record request — test call for `C[C@]12CC[C@H]3[C@@H](CC=C4c5nc(-c6ccc(Br)cc6)sc5CC[C@@]43C)[C@@H]1CC[C@@H]2O`
inactive

Record request — test call for `COc1ccc(CN)cc1OC`
inactive

Record request — test call for `O=C(O)C(F)F`
inactive

Record request — test call for `CC[C@@H](C)C(=O)O[C@H]1[C@H](O)[C@H]2[C@@H](CN3C[C@@H](C)CC[C@H]3[C@@]2(C)O)[C@@H]2C[C@]34O[C@]5(O)[C@@H](OC(=O)[C@@](C)(O)CC)CC[C@@]3(C)[C@@H]5[C@@H](OC(C)=O)[C@@H](OC(C)=O)[C@H]4[C@@]21O`
inactive

Record request — test call for `CC[C@H](C)[C@H](NC(=O)CN(C)C)C(=O)N(C)[C@H](C[C@@H](OC(C)=O)c1nc(C(=O)NC23CC(C(=O)OC)(C2)C3)cs1)C(C)C`
inactive

Record request — test call for CCCC(C)SP(=S)(SC(C)CCC)SC(C)CCC (stereo unspecified)
inactive

Record request — test call for `C[C@]12CC[C@H]3[C@@H](C[C@@H]4SC(Nc5ccccc5)=N[C@@]45C/C(=N/O)CC[C@]35C)[C@@H]1CCC2=O`
inactive

----------
tested on: SK-OV-3 ovarian; experiment: NCI-60 one-dose screen, 48 h; conditions: 10 µM unless noted
This is part of a sample that, as a whole, favours compounds with a hit. Of some 83,000 tested, about 20% had one in any assay. Activity calls are given as the source filed them. The calls were made as follows: active = growth percent below 10; inactive = the rest.
The categories you may choose from are 1.0 = active, 0.0 = inactive

- sample smiles: "CC[C@H](C)[C@H]1O[C@]2(C=C[C@@H]1C)C[C@@H]1C[C@@H](C/C=C(\\C)[C@@H](O[C@H]3C[C@H](OC)[C@@H](O[C@H]4C[C@H](OC)[C@@H](NC)[C@H](C)O4)[C@H](C)O3)[C@@H](C)/C=C/C=C3\\CO[C@@H]4[C@H](O)C(C)=C[C@@H](C(=O)O1)[C@]34O)O2"
  label value: 1.0
- sample smiles: "NC(N)=NC(N)=Nc1ccc(Cl)cc1"
  label value: 0.0

Record request — test call for `CCCn1cc2c3c(cccc31)[C@H]1C[C@@H](C)CN(C)[C@@H]1C2`
0.0
